The origin of these recorded values is ChEMBL document CHEMBL1150989.

Entries and their measured Ki follow.
- tgt: Interleukin-8 receptors, CXCR1/CXCR2 (Homo sapiens, UniProt P25025+P25024)
- Sequence (P25025 whole entry): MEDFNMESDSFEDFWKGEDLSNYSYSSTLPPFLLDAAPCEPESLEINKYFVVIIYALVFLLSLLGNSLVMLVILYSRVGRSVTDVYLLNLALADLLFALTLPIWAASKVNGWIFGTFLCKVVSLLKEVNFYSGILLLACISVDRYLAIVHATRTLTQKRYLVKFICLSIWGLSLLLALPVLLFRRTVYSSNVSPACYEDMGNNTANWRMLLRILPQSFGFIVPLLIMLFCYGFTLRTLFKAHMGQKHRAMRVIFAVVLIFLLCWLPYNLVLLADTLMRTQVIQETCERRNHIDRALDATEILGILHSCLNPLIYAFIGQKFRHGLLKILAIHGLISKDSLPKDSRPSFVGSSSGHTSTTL
- Sequence (P25024 whole entry): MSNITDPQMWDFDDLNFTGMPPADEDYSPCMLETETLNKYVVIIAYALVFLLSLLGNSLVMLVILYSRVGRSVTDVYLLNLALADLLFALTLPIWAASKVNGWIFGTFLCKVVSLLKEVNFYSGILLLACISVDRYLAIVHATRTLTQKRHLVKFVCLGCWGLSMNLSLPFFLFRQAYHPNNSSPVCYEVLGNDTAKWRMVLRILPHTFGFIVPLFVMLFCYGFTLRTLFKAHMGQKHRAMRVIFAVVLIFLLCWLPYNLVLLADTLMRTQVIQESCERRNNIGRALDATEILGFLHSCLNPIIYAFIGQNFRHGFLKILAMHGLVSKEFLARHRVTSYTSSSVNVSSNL
- assay.comment: Inhibitory activity against interleukin-8 receptor using [125I]IL8
- Type: protein assay
metric.name: Ki (µM)

1) Ac-MWDFDALNFTGMPPADEDYSP-NH2 = 62
2) Ac-MWDADDLNFTGMPPADEDYSP-NH2 = 49
3) Ac-MADFDDLNFTGMPPADEDYSP-NH2 = 55
4) Ac-MWDFDDLNFAGMPPADEDYSP-NH2 = 5
5) Ac-FRQAYHPNNSSP-NH2 = 10
6) Ac-MWDFDDLNFTGMPPADEAYSP-NH2 = 42
7) Ac-FTGMPPADEDYSP-NH2 = 1850
8) Ac-AWDFDDLNFTGMPPADEDYSP-NH2 = 23
9) Ac-MWAFDDLNFTGMPPADEDYSP-NH2 = 28
10) Ac-MWDFDDLNFTGMPAADEDYSP-NH2 = 27
11) Ac-MWDFDDLNFTGMPPADEDYSP-NH2 = 13
12) Ac-MWDFDDLNFTGMAPADEDYSP-NH2 = 400
13) Ac-GMPPADEDYSP-NH2 = 890
14) Ac-TGMPPADEDYSP-NH2 = 2050
15) Ac-MWDFDDANFTGMPPADEDYSP-NH2 = 61
16) Ac-LNFTGMPPADEDYSP-NH2 = 3100
17) Ac-MWDFDDLNFTGMPPADEDYAP-NH2 = 15
